Target: FGFR3 (human)
Experiment: KINOMEscan competition binding
Conditions: compound 10.0 µM
// assign Satisfied if kinase still bound, per cent of control falls strictly below 90%, else Not satisfied (ties count as Not satisfied)

>  <compound-structure-string>
C=CC(=O)Nc1ccc(CN(C(=O)Nc2c(Cl)c(OC)cc(OC)c2Cl)c2cc(Nc3ccc(N4CCN(C)CC4)cc3)ncn2)cc1

>  <category-label>
Satisfied

$$$$
>  <compound-structure-string>
N#CCNC(=O)c1ccc(-c2ccnc(Nc3ccc(N4CCOCC4)cc3)n2)cc1

>  <category-label>
Satisfied

$$$$
>  <compound-structure-string>
COc1cc(N2CCN(C)CC2)ccc1Nc1ncc2c(n1)N(C)c1ccccc1C(=O)N2C

>  <category-label>
Not satisfied

$$$$
>  <compound-structure-string>
CCN1CCN(C(=O)Cc2ccc(Nc3ncc(F)c(Nc4ccc(C(=O)Nc5ccccc5Cl)cc4)n3)cc2)CC1

>  <category-label>
Satisfied

$$$$
>  <compound-structure-string>
O=C1NC(=O)/C(=C/c2ccc3nccc(-c4ccncc4)c3c2)S1

>  <category-label>
Not satisfied

$$$$
>  <compound-structure-string>
Cc1n[nH]c2ccc(-c3cncc(OC[C@@H](N)Cc4c[nH]c5ccccc45)c3)cc12

>  <category-label>
Not satisfied

$$$$
>  <compound-structure-string>
NC(=O)Nc1cc(-c2cccc(F)c2)sc1C(=O)N[C@@H]1CCCNC1

>  <category-label>
Satisfied

$$$$
>  <compound-structure-string>
O=c1cc(N2CCOCC2)oc2c(-c3cccc4c3sc3ccccc34)cccc12

>  <category-label>
Satisfied

$$$$
>  <compound-structure-string>
CS(=O)(=O)N1CCN(Cc2cc3nc(-c4cccc5[nH]ncc45)nc(N4CCOCC4)c3s2)CC1

>  <category-label>
Not satisfied

$$$$

----------
Target: MAP2K6 (human)
Experiment: KINOMEscan competition binding
Conditions: compound 10.0 µM
Returns: string. Value is satisfied if measured kinase still bound, per cent of control is below 80%, and not satisfied if it is greater than or equal to it.

>  <compound-structure-string>
C=CC(=O)Nc1ccc(CN(C(=O)Nc2c(Cl)c(OC)cc(OC)c2Cl)c2cc(Nc3ccc(N4CCN(C)CC4)cc3)ncn2)cc1

>  <assayed-target>
MAP2K6 (human)

>  <category-label>
not satisfied

$$$$
>  <compound-structure-string>
COc1cc2ncnc(-n3nc(-c4ccccn4)nc3N)c2cc1OC

>  <assayed-target>
MAP2K6 (human)

>  <category-label>
satisfied

$$$$
>  <compound-structure-string>
CS(=O)(=O)N1CCN(Cc2cc3nc(-c4cccc5[nH]ncc45)nc(N4CCOCC4)c3s2)CC1

>  <assayed-target>
MAP2K6 (human)

>  <category-label>
not satisfied

$$$$
>  <compound-structure-string>
CN(C)C/C=C/C(=O)Nc1ccc(C(=O)Nc2cccc(Nc3nccc(-c4cccnc4)n3)c2)cc1

>  <assayed-target>
MAP2K6 (human)

>  <category-label>
satisfied

$$$$
>  <compound-structure-string>
C[C@@H](Oc1cc(-c2cnn(C3CCNCC3)c2)cnc1N)c1c(Cl)ccc(F)c1Cl

>  <assayed-target>
MAP2K6 (human)

>  <category-label>
satisfied

$$$$
>  <compound-structure-string>
COc1cc(C(=O)N2CCC(N3CCN(C)CC3)CC2)ccc1Nc1ncc2c(n1)N(C)c1ccccc1C(=O)N2C

>  <assayed-target>
MAP2K6 (human)

>  <category-label>
not satisfied

$$$$
>  <compound-structure-string>
COc1cc2ncn(-c3cc(OCc4ccccc4C(F)(F)F)c(C(N)=O)s3)c2cc1OC

>  <assayed-target>
MAP2K6 (human)

>  <category-label>
not satisfied

$$$$
>  <compound-structure-string>
CNC(=O)c1cc(Oc2ccc(NC(=O)Nc3ccc(Cl)c(C(F)(F)F)c3)cc2)ccn1

>  <assayed-target>
MAP2K6 (human)

>  <category-label>
satisfied

$$$$
